Attribute: pIC50
- Tested system: Toll-like receptor 9 (Homo sapiens, UniProt Q9NR96)
- Sequence (Q9NR96 whole entry): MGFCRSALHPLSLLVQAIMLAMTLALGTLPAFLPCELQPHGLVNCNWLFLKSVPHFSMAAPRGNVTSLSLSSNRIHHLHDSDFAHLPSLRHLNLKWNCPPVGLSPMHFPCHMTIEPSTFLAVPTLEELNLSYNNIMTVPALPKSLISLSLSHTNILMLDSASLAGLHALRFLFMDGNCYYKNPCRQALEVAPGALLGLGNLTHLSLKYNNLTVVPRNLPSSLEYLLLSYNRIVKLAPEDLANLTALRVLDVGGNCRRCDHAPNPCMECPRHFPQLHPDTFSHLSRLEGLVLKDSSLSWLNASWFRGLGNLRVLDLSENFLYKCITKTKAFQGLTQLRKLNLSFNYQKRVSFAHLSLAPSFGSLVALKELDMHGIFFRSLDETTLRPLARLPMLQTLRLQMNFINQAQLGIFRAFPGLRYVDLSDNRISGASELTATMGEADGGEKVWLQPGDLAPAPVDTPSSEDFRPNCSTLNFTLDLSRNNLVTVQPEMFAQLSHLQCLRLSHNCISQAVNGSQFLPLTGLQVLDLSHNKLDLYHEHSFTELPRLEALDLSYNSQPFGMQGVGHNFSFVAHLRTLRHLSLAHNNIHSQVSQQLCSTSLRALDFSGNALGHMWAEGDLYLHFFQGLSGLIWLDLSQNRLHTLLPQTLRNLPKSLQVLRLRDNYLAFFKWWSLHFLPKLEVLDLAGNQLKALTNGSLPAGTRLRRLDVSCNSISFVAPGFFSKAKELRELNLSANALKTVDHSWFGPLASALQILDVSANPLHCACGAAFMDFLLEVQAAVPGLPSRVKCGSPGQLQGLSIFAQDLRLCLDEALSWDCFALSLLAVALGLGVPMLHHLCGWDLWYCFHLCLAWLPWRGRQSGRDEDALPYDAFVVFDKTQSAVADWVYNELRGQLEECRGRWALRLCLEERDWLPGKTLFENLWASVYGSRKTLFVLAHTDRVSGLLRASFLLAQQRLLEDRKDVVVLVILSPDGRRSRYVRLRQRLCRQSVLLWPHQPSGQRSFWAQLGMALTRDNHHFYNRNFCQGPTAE
- Experiment: Antagonist activity at human TLR9 expressed in […] cells assessed as inhibition of CpGB-induced NFkappaB activation measured after overnight incubation by SEAP-based spectrophotometry assay
pIC50: −log10 of the molar value.

{"Query smiles": "CCN1CCN(CCCn2cnc3c(N4CCN(C(=O)c5ccccc5)CC4)nc(NCc4ccc(F)cc4)nc32)CC1", "Tested system": "Toll-like receptor 9 (Homo sapiens, UniProt Q9NR96)", "Result": "< 4.52"}
{"Query smiles": "CCN1CCN(CCCn2cnc3c(N4CCN(C(=O)c5ccccc5)CC4)nc(NCc4ccc(OC)cc4)nc32)CC1", "Tested system": "Toll-like receptor 9 (Homo sapiens, UniProt Q9NR96)", "Result": "< 4.52"}

QUERY: Fill in pIC50 for CCN1CCN(CCCn2cnc3c(N4CCN(C(=O)c5ccccc5)CC4)nc(N)nc32)CC1 tested with Toll-like receptor 9 (Homo sapiens, UniProt Q9NR96).
RESULT: < 4.52

The reported numbers originate from ChEMBL document CHEMBL5036327.
